src = patent US20230365537A1

# TEST TARGET: human recombinant PLK4 (Homo sapiens (Human))
# PROTOCOL TEXT: PLK4 Biochemical Assay (ADP-Glo)
# CONDITION NOTES: 0.5 nM PLK4, 8.0 µM ATP, 4.7 µM MBP, 6 hours at RT
pIC50: −log10 of the molar value.
MEASURED PROPERTY: pIC50

COc1ccc2c(c1)[C@]1(C[C@H]1c1ccc3c(Nc4cc(F)c(C(=O)N(C)C)cc4OC)n[nH]c3c1)C(=O)N2 | 9.09

A. COc1ccc2c(c1)[C@]1(C[C@H]1c1ccc3c(Nc4ncc(S(=O)(=O)C5CCOCC5)cc4OC)n[nH]c3c1)C(=O)N2
B. COc1ccc2c(c1)[C@]1(C[C@H]1c1ccc3c(Nc4cc(OCCO)ncn4)n[nH]c3c1)C(=O)N2
C. COc1ccc2c(c1)[C@]1(C[C@H]1c1ccc3c(Nc4nc(C(C)C)ncc4Cl)n[nH]c3c1)C(=O)N2
## Input Arrange the 3 compounds by rising pIC50, starting with the smallest. Ranked list of labels, please, in the requested order.
## Output B, C, A

----------
# TEST TARGET: human recombinant PLK4 (Homo sapiens (Human), UniProt O00444)
# Sequence (O00444 whole entry): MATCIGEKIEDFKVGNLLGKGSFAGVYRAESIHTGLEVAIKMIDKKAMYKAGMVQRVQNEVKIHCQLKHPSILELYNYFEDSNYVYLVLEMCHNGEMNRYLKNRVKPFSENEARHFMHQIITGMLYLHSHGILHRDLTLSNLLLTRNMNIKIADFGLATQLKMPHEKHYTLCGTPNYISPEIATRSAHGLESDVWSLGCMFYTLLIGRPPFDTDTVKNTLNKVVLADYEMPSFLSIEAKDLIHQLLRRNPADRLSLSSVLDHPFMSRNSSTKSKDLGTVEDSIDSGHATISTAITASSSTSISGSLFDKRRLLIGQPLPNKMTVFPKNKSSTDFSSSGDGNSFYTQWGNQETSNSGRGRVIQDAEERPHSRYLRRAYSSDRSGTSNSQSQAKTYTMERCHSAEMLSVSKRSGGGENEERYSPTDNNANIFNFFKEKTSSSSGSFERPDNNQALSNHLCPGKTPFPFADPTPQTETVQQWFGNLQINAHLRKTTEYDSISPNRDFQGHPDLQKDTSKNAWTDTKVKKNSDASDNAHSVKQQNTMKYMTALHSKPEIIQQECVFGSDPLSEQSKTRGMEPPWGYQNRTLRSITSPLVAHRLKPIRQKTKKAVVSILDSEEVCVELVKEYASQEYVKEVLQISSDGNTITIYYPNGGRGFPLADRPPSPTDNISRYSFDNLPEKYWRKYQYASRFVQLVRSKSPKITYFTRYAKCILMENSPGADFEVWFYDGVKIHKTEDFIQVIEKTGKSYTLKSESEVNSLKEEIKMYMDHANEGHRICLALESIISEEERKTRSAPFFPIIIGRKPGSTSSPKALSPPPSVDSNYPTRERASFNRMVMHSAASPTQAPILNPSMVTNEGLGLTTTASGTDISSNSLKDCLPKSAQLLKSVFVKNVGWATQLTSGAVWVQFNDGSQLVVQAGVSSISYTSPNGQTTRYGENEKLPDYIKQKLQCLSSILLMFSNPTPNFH
# PROTOCOL TEXT: PLK4 Biochemical Assay (ADP-Glo)
# CONDITION NOTES: 0.5 nM PLK4, 8.0 µM ATP, 4.7 µM MBP, 6 hours at RT
MEASURED PROPERTY: IC50 (nM)

Known results for molecules:
CCOc1cc(S(=O)(=O)CC)cnc1Nc1n[nH]c2cc([C@@H]3C[C@@]34C(=O)Nc3ccc(OC)cc34)ccc12 | 0.763
COc1ccc2c(c1)[C@]1(C[C@H]1c1ccc3c(Nc4cccnc4OC)n[nH]c3c1)C(=O)N2 | 2.25
COc1ccc2c(c1)[C@]1(C[C@H]1c1ccc3c(Nc4cc(N5CCCC5=O)cnc4OC)n[nH]c3c1)C(=O)N2 | 6.01
COc1ccc2c(c1)[C@]1(C[C@H]1c1ccc3c(Nc4nc(C(C)C)nc(N5CCOCC5)c4OC)n[nH]c3c1)C(=O)N2 | 1.91
COc1ccc2c(c1)[C@]1(C[C@H]1c1ccc3c(Nc4cc(S(=O)(=O)N5CCOCC5)ccc4OC)n[nH]c3c1)C(=O)N2 | 2.69

A. COc1ccc2c(c1)[C@]1(C[C@H]1c1ccc3c(Nc4nc(C)ncc4OC(F)F)n[nH]c3c1)C(=O)N2
B. COc1ccc2c(c1)[C@]1(C[C@H]1c1ccc3c(Nc4ncc(P(C)(C)=O)nc4OC)n[nH]c3c1)C(=O)N2
C. COc1cnc(C)nc1Nc1n[nH]c2cc([C@@H]3C[C@@]34C(=O)Nc3cc(F)ccc34)ccc12
D. COc1ccc2c(c1)[C@]1(C[C@H]1c1ccc3c(Nc4nc(Cl)nc5ccoc45)n[nH]c3c1)C(=O)N2
E. COc1ccc2c(c1)[C@]1(C[C@H]1c1ccc3c(Nc4ncc(S(C)(=O)=O)cc4OC)n[nH]c3c1)C(=O)N2
## Input Arrange the 5 molecules by rising IC50, starting with the smallest. Ranked list of labels, please, in the requested order.
## Output E, A, D, B, C
(E: 1.13 nM, A: 1.79 nM, D: 4.68 nM, B: 7.85 nM, C: 53.8 nM)

P. COc1ccc2c(c1)[C@]1(C[C@H]1c1ccc3c(Nc4cc(C)ccc4OC)n[nH]c3c1)C(=O)N2
Q. COc1ccc2c(c1)[C@]1(C[C@H]1c1ccc3c(Nc4ccc5c(c4OC)CN(C)C5=O)n[nH]c3c1)C(=O)N2
R. COc1ccc2c(c1)[C@]1(C[C@H]1c1ccc3c(Nc4c(C)nn(C)c4C)n[nH]c3c1)C(=O)N2
## Input Arrange the 3 molecules by rising IC50, starting with the smallest. Ranked list of labels, please, in the requested order.
## Output Q, P, R
(Q: 2.34 nM, P: 6.87 nM, R: 41.7 nM)

----------
# TEST TARGET: human recombinant Aurora A (Homo sapiens (Human), UniProt O14965)
# Sequence (O14965 whole entry): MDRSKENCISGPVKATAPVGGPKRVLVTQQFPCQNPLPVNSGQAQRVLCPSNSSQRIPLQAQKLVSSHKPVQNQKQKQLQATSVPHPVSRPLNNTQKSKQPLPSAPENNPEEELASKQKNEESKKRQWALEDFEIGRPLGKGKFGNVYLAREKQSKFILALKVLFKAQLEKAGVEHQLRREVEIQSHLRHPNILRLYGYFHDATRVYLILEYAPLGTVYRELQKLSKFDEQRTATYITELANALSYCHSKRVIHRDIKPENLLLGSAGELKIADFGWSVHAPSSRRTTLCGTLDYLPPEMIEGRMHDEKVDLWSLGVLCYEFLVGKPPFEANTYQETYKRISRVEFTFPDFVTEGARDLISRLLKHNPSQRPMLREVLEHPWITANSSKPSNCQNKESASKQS
# PROTOCOL TEXT: Aurora A Kinase Biochemical Assay (ADP-Glo)
# CONDITION NOTES: ratio of Aurora A IC50 to PLK4 IC50 (selectivity)
MEASURED PROPERTY: [Aurora A IC50 (nM)]/[PLK4 IC50 (nM)]

Known results for compounds:
COc1ccc2c(c1)[C@]1(C[C@H]1c1ccc3c(Nc4ccc(C(=O)N5CCOCC5)cc4OC)n[nH]c3c1)C(=O)N2 [Example 199] | 439.9441
CCc1cnc(C)nc1Nc1n[nH]c2cc([C@@H]3C[C@@]34C(=O)Nc3ccc(OC)cc34)ccc12 [Example 152] | 502.7949
COc1ccc2c(c1)[C@]1(C[C@H]1c1ccc3c(Nc4nc(C)nc(N5C[C@@H](C)O[C@@H](C)C5)c4OC)n[nH]c3c1)C(=O)N2 [Example 67] | 4976.155

1. COc1ccc2c(c1)[C@]1(C[C@H]1c1ccc3c(Nc4cc(F)c(C(=O)N(C)C)cc4OC)n[nH]c3c1)C(=O)N2 [Example 206]
2. COc1ccc2c(c1)[C@]1(C[C@H]1c1ccc3c(Nc4ccc([S+](C)[O-])nc4OC)n[nH]c3c1)C(=O)N2 (single isomer, unassigned) [Example 239]
## Input Which is greater in [Aurora A IC50 (nM)]/[PLK4 IC50 (nM)], the first item 1 or the second item 2 ? Refer to your chosen entry by its label in the reply.
## Output 2

A. COc1ccc2c(c1)[C@]1(C[C@H]1c1ccc3c(Nc4cc(N5CCOCC5)nc(C(C)C)n4)n[nH]c3c1)C(=O)N2 [Example 102]
B. COc1ccc2c(c1)[C@]1(C[C@H]1c1ccc3c(Nc4nnccc4OC)n[nH]c3c1)C(=O)N2 [Example 90]
C. COc1ccc2c(c1)[C@]1(C[C@H]1c1ccc3c(Nc4ccc(C(=O)N5CC(F)(F)C5)nc4OC)n[nH]c3c1)C(=O)N2 [Example 184]
D. COc1ccc2c(c1)[C@]1(C[C@H]1c1ccc3c(Nc4nc(N5CCCC5)ncc4OC)n[nH]c3c1)C(=O)N2 [Example 167]
## Input Highest [Aurora A IC50 (nM)]/[PLK4 IC50 (nM)] first, then in falling order down to the smallest. Ranked list of labels, please, in the requested order.
## Output C, B, D, A
(C: 7144.8985, B: 1505.334, D: 295.5932, A: 114.7355)

P. COc1ccc2c(c1)[C@]1(C[C@H]1c1ccc3c(Nc4nc(C5CCOC5)ncc4OC)n[nH]c3c1)C(=O)N2 (single isomer, unassigned) [Example 201]
Q. COc1cnc(C)nc1Nc1n[nH]c2cc([C@@H]3C[C@]34C(=O)Nc3cccc(F)c34)ccc12 [Example 130]
R. COc1ccc2c(c1)[C@]1(C[C@H]1c1cc3[nH]nc(Nc4nc(C)ncc4OC)c3cc1F)C(=O)N2 [Example 144]
## Input Arrange the 3 compounds by rising [Aurora A IC50 (nM)]/[PLK4 IC50 (nM)], starting with the smallest. Ranked list of labels, please, in the requested order.
## Output Q, P, R

----------
# TEST TARGET: human recombinant Aurora A (Homo sapiens (Human))
# PROTOCOL TEXT: Aurora A Kinase Biochemical Assay (ADP-Glo)
# CONDITION NOTES: ratio of Aurora A IC50 to PLK4 IC50 (selectivity)
MEASURED PROPERTY: [Aurora A IC50 (nM)]/[PLK4 IC50 (nM)]

CCOc1cc(S(=O)(=O)N2CCN(C)CC2)cnc1Nc1n[nH]c2cc([C@@H]3C[C@@]34C(=O)Nc3ccc(OC)cc34)ccc12 [Example 273] | 3483.1383
COc1ccc2c(c1)[C@]1(C[C@H]1c1ccc3c(Nc4ncnc(N5C[C@@H](C)O[C@@H](C)C5)c4OC)n[nH]c3c1)C(=O)N2 [Example 52] | 2009.699
COc1ccc2c(c1)[C@]1(C[C@H]1c1ccc3c(Nc4ncc(S(=O)(=O)C(F)F)cc4OC)n[nH]c3c1)C(=O)N2 [Example 280] | 727.2256
COc1ccc2c(c1)[C@]1(C[C@H]1c1ccc3c(Nc4cc(N5CCS(=O)(=O)CC5)ncn4)n[nH]c3c1)C(=O)N2 [Example 39] | 30.38

a. CCN1C(=O)[C@@]2(C[C@H]2c2ccc3c(Nc4ncnc(N5CC(O)C5)c4Cl)n[nH]c3c2)c2cc(OC)ccc21 [Example 108]
b. COc1ccc2c(c1)[C@]1(C[C@H]1c1ccc3c(Nc4nc(C)nc5c4C(C)SC5)n[nH]c3c1)C(=O)N2 (single isomer, unassigned) [Example 211]
## Input Which is greater in [Aurora A IC50 (nM)]/[PLK4 IC50 (nM)], the first item a or the second item b ? Refer to your chosen entry by its label in the reply.
## Output a

1. COc1ccc2c(c1)[C@]1(C[C@H]1c1ccc3c(Nc4nc(C(C)C)nc(N5CCS(=O)(=O)CC5)c4OC)n[nH]c3c1)C(=O)N2 [Example 84]
2. COc1ccc2c(c1)[C@]1(C[C@H]1c1ccc3c(Nc4nc(C)nc5c4OCC5)n[nH]c3c1)C(=O)N2 [Example 153]
## Input For the pair 1 and 2 , which entry has the numerically smaller recorded [Aurora A IC50 (nM)]/[PLK4 IC50 (nM)]? Refer to your chosen entry by its label in the reply.
## Output 2
(2: 1254.4596, 1: 39123.63)

P. COc1ccc2c(c1)[C@]1(C[C@H]1c1ccc3c(Nc4ncc(S(C)(=O)=O)cc4Cl)n[nH]c3c1)C(=O)N2 [Example 247]
Q. COc1ccc2c(c1)[C@]1(C[C@H]1c1ccc3c(Nc4nc(C)ncc4OC(F)F)n[nH]c3c1)C(=O)N2 [Example 121]
R. COc1ccc2c(c1)[C@]1(C[C@H]1c1ccc3c(Nc4nc(N5CCOCC5)ncc4OC)n[nH]c3c1)C(=O)N2 [Example 97]
S. CCOc1cnc(SC)nc1Nc1n[nH]c2cc([C@@H]3C[C@@]34C(=O)Nc3ccc(OC)cc34)ccc12 [Example 195]
## Input Highest [Aurora A IC50 (nM)]/[PLK4 IC50 (nM)] first, then in falling order down to the smallest. Ranked list of labels, please, in the requested order.
## Output S, P, Q, R

A. COc1ccc2c(c1)[C@]1(C[C@H]1c1ccc3c(Nc4nc(C)ncc4OC)n[nH]c3c1F)C(=O)N2 [Example 123]
B. COc1ccc2c(c1)[C@]1(C[C@H]1c1ccc3c(Nc4cc(N5CCS(=O)(=O)CC5)nc(C5CC5)n4)n[nH]c3c1)C(=O)N2 [Example 59]
C. COc1ccc2c(c1)[C@]1(C[C@H]1c1ccc3c(Nc4nn(C)c(=O)cc4OC)n[nH]c3c1)C(=O)N2 [Example 233]
D. CCOc1cc(S(=O)(=O)NC)cnc1Nc1n[nH]c2cc([C@@H]3C[C@@]34C(=O)Nc3ccc(OC)cc34)ccc12 [Example 275]
E. COc1ccc2c(c1)[C@]1(C[C@H]1c1ccc3c(Nc4ncnc(N5CCOCC5)c4OC(F)F)n[nH]c3c1)C(=O)N2 [Example 109]
## Input Arrange the 5 compounds by rising [Aurora A IC50 (nM)]/[PLK4 IC50 (nM)], starting with the smallest. Ranked list of labels, please, in the requested order.
## Output B, C, A, D, E
(B: 108.4696, C: 332.3068, A: 667.5698, D: 2162.7118, E: 50000)

P. COc1ccc2c(c1)[C@]1(C[C@H]1c1ccc3c(Nc4nc(S(C)(=O)=O)ccc4OC)n[nH]c3c1)C(=O)N2 [Example 196]
Q. CCn1nc(C2CC2)cc1Nc1n[nH]c2cc([C@@H]3C[C@@]34C(=O)Nc3ccc(OC)cc34)ccc12 [Example 92]
## Input For the pair P and Q , which entry has the numerically smaller recorded [Aurora A IC50 (nM)]/[PLK4 IC50 (nM)]? Refer to your chosen entry by its label in the reply.
## Output Q
(Q: 132.8355, P: 732.3689)

I. COc1ccc2c(c1)[C@]1(C[C@H]1c1ccc3c(Nc4ncc(S(=O)(=O)N5CCOCC5)cc4OC)n[nH]c3c1)C(=O)N2 [Example 255]
II. COc1ccc2c(c1)[C@]1(C[C@H]1c1ccc3c(Nc4nc(C)nc5c4CCC5)n[nH]c3c1)C(=O)N2 [Example 159]
## Input Which is greater in [Aurora A IC50 (nM)]/[PLK4 IC50 (nM)], the first item I or the second item II ? Refer to your chosen entry by its label in the reply.
## Output I
(I: 840.1202, II: 309.7350)

a. COc1ccc2c(c1)[C@]1(C[C@H]1c1cc(F)c3c(Nc4nc(SC)ncc4OC)n[nH]c3c1)C(=O)N2 [Example 186]
b. COc1ccc2c(c1)[C@]1(C[C@H]1c1ccc3c(Nc4nc5ccccc5cc4OC)n[nH]c3c1)C(=O)N2 [Example 163]
c. COc1ccc2c(c1)[C@]1(C[C@H]1c1ccc3c(Nc4nccc5c4OC[C@@H]5CO)n[nH]c3c1)C(=O)N2 [Example 33]
## Input Arrange the 3 compounds by rising [Aurora A IC50 (nM)]/[PLK4 IC50 (nM)], starting with the smallest. Ranked list of labels, please, in the requested order.
## Output c, a, b
(c: 355.9465, a: 641.9337, b: 2164.0420)

1. COc1ccc2c(c1)[C@]1(C[C@H]1c1ccc3c(Nc4ccc(P(C)(C)=O)nc4OC)n[nH]c3c1)C(=O)N2 [Example 205]
2. COc1ccc2c(c1)[C@]1(C[C@H]1c1ccc3c(Nc4nc(C5CC5)cnc4OC)n[nH]c3c1)C(=O)N2.O=C(O)C(F)(F)F [Example 80]
## Input Which is greater in [Aurora A IC50 (nM)]/[PLK4 IC50 (nM)], the first item 1 or the second item 2 ? Refer to your chosen entry by its label in the reply.
## Output 1
